Assayed target: GST-RIPK2 fusion protein (human RIPK2, amino acids 1-310) (Homo sapiens, UniProt O43353)
Construct: made in house; host or cells: baculovirus infected Sf9 cells
Sequence (O43353 1-310): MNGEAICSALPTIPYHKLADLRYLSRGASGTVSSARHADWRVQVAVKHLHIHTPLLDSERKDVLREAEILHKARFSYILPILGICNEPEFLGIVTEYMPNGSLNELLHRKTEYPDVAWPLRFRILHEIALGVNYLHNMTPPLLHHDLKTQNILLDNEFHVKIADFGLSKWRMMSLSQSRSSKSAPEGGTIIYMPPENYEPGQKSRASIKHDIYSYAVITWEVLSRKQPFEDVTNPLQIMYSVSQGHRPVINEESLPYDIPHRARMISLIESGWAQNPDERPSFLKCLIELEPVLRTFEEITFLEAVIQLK
Assay remarks: RIPK2 binding competition assay (TR-FRET, Tracer 199 displacement)
Reported conditions: 10 nM Tracer 199, 1 nM GST-RIPK2, read-out: RIPK2 IC50
pIC50: −log10 of the molar value.
Property measured: pIC50

Task: I have this compound here, COc1cc2ncc(-c3cc(F)c(OC)c(NS(=O)(=O)c4cccnc4)c3)n2cc1S(=O)(=O)C(C)(C)C , and I need its recorded pIC50.
Result: > 9.00

Task: What do we get for COc1cc2ncc(-c3cc(N)cc4[nH]ncc34)n2cc1S(=O)(=O)C(C)(C)C ?
Result: < 7.70

Task: Then C[C@@H](O)COc1cn2ncc(-c3cc(F)c(N)nc3F)c2cc1S(=O)(=O)C(C)(C)C ?
Result: 7.70 to 8.60

Task: Same read-out for CC(C)(C)S(=O)(=O)c1cn2c(-c3cc(F)c(N)nc3F)cnc2cc1OCC1COC1 ?
Result: 8.60 to 9.00

Task: Similarly, CCCS(=O)(=O)Nc1cc(-c2cnc3cc(OC)c(S(=O)(=O)C(C)(C)CO)cn23)cc(F)c1OC ?
Result: > 9.00

Task: How about this compound: CCC(CO)COc1cc2ncc(-c3cc(F)c(N)nc3F)n2cc1S(=O)(=O)C(C)(C)C (centres unmarked)
Result: 8.60 to 9.00

Task: Next entry: COc1cc2ncc(-c3cc(F)c(N)nc3F)n2cc1S(=O)(=O)c1ccnn1C
Result: < 7.70

Task: How about this compound: CC(C)(C)S(=O)(=O)c1cn2c(-c3ccc4[nH]cnc4c3)cnc2cc1OCCO
Result: 7.70 to 8.60
